Experiment: in vitro
Settings: African green monkey
MEASURE NAME: CC50

Dear colleague, I am looking for the recorded CC50 of the following molecule: NC(=O)c1ncn([C@@H]2O[C@H](CO)[C@@H](O)[C@H]2O)n1
> 100 mg/L

====

Experiment: in vitro
Conditions: African green monkey
MEASURE NAME: CC50

Dear colleague, I am looking for the recorded CC50 of the following molecule: NC(=O)c1ncn([C@@H]2O[C@H](CO)[C@@H](O)[C@H]2O)n1
> 100 µg/mL

====

Assay: in vitro
Conditions: African green monkey
MEASURE NAME: CC50

Dear colleague, I am looking for the recorded CC50 of the following compound: NC(=O)c1ncn([C@@H]2O[C@H](CO)[C@@H](O)[C@H]2O)n1 [Ribavirin, ribavirin]
> 100 µg/mL
